- studySystem: T1, Pfs230 D1D2 (aa 587–889) (Plasmodium falciparum 3D7, UniProt P68874)
- T1 construct: used untagged; also called first two 6-cys domains of Pfs230; source: Sf21 insect cells (baculovirus), secreted, purified (Ni-NTA, TEV cleavage, SEC); not shown: His8, N-terminal, cleaved
- T1 sequence (P68874 587-889): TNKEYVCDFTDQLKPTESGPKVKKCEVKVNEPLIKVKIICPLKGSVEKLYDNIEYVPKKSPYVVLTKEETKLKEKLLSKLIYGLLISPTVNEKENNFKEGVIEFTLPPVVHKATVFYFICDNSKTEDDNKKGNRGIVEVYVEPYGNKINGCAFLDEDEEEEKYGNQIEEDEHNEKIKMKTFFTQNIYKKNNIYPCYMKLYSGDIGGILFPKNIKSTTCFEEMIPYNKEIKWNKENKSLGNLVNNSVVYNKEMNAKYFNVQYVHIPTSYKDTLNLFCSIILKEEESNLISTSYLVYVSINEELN
- method: BLI; Octet RED96e; monomeric nanobodies (5 µg/ml) on Ni-NTA sensor tips; untagged Pfs230 D1D2 6 to 200 nM or untagged Pfs230 D1 0.8 to 100 nM; PBS pH 7.4, 0.1% BSA, 0.05% TWEEN-20, 25°C; global 1 : 1 fit
- runParameters: both partners purified

binder: nanobody E11 (VHH, From a phage display library (pMES4) of an alpaca immunized with Pfs230 D1D2; source: E. coli WK6, periplasmic extract, purified (HisTrap)) VHH: QVQLQESGGGLVQPGGSLRLSCAASGFTSDYYGIGWFRQAPGKEREGVACISSSDGSTYYADSVKGRSTISRDNAKNTVYLQMNSLKPEDTAVYYCAADLSGIGCTTAQAMDVIGDFGDFGSWGQGTQVTVSS
binding result: binds
//
binder: nanobody D11 (VHH, From a phage display library (pMES4) of an alpaca immunized with Pfs230 D1D2; source: E. coli WK6, periplasmic extract, purified (HisTrap)) VHH: QVQLQESGGGLVQAGSSLRLSCAASGRTFSSYAMGWFRQAPGKEREFVAAIGWSGGTYYTDSVEGRFTISRDNAENTVYLQMNSLKPEDTAVYYCAAKASGSSWSERGYDYWGQGTQVTVSS
binding result: binds
//
binder: nanobody E1 (VHH, From a phage display library (pMES4) of an alpaca immunized with Pfs230 D1D2; source: E. coli WK6, periplasmic extract, purified (HisTrap)) VHH: QVQLQESGGGLVQPGGSLRLSCAASGRTFSSYFMGWFRQAPGKGRVFVASISWSGGSTYYADSVKGRFTISRDNAENTVYLQMNSLKPEDTAVYYCAAGTRATPLDWASGMDYWGKGTQVTVSS
binding result: binds
//
binder: nanobody B4 (VHH, From a phage display library (pMES4) of an alpaca immunized with Pfs230 D1D2; source: E. coli WK6, periplasmic extract, purified (HisTrap)) VHH: QVQLQESGGGLVQPGGSLRLSCAASGFTLDYYGIGWFRQAPGKEREGVSCISSSDGSTYYADSVKGRFTISRDNAKNTVYLQMNSLKPEDTAVYYCAADLTGIGCTTAQAMGVIGDFGDFGSWGQGTQVTVSS
binding result: binds
